Item-by-item account of pIC50
- measured_on: full length active recombinant SYK enzyme (Homo sapiens)
- Construct: full length active recombinant SYK enzyme (Millipore, Calif.)
- test_description: Inhibition of Syk tyrosine phosphorylation activity (LANCE TR-FRET kinase assay)
- particulars: activity in the Syk assays, class symbols
pIC50: −log10 of the molar value.

Some molecules with known pIC50 results, for comparison:
>>> obs_value("CC[C@@H](Nc1cnc(C(N)=O)c(Nc2ccc(S(=O)(=O)N(C)C)cc2)n1)C(N)=O")
"7.00 to 8.00"
>>> obs_value("CC(C)[C@@H](Nc1cnc(C(N)=O)c(Nc2ccc(-n3ccnc3)cc2)n1)C(N)=O")
"7.00 to 8.00"
>>> obs_value("NC(=O)c1ncc(N[C@@H]2CCCC[C@@H]2N)nc1Nc1ccc(N2CCCCC2=O)cc1")
"7.00 to 8.00"
>>> obs_value("NC(=O)c1ncc(N[C@H]2CC[C@@H](N)CC2)nc1Nc1cccc(-c2ncccn2)c1")
"8.00 to 9.00"
>>> obs_value("CC[C@@H](Nc1cnc(C(N)=O)c(Nc2cccnc2)n1)C(N)=O")
"7.00 to 8.00"

// query Please report the measured pIC50 for NC(=O)c1ncc(N[C@@H]2CCCC(F)(F)[C@@H]2N)nc1Nc1cccnc1
// result 7.00 to 8.00

// query Please report the measured pIC50 for NC(=O)c1ncc(N[C@@H](C(N)=O)c2ccccc2)nc1Nc1ccc2ncccc2c1
// result 8.00 to 9.00

// query Please report the measured pIC50 for CC(C)C[C@@H](Nc1cnc(C(N)=O)c(Nc2ccc(C(N)=O)cc2)n1)C(N)=O
// result 8.00 to 9.00

// query Please report the measured pIC50 for CC[C@@H](Nc1cnc(C(N)=O)c(Nc2cccc(-c3ncco3)c2)n1)C(N)=O
// result 7.00 to 8.00

// query Please report the measured pIC50 for CN1C(=O)CCc2cc(Nc3nc(N[C@@H]4CCCC[C@@H]4N)cnc3C(N)=O)ccc21
// result 8.00 to 9.00

// query Please report the measured pIC50 for COC[C@@H](Nc1cnc(C(N)=O)c(Nc2ccc3ncccc3c2)n1)C(N)=O
// result 7.00 to 8.00

// query Please report the measured pIC50 for NC(=O)c1ncc(N[C@@H]2CCCC[C@@H]2N)nc1Nc1cnn(-c2ccccc2)c1
// result > 9.00

// query Please report the measured pIC50 for CCc1cc(Nc2nc(N[C@H](CC)C(N)=O)cnc2C(N)=O)sn1
// result 8.00 to 9.00

// query Please report the measured pIC50 for CC[C@@H](Nc1cnc(C(N)=O)c(Nc2snc3ccsc23)n1)C(N)=O
// result 8.00 to 9.00

// query Please report the measured pIC50 for NC(=O)c1ncc(N[C@@H]2CCCC[C@@H]2N)nc1Nc1ccc2cccnc2c1
// result 8.00 to 9.00

// query Please report the measured pIC50 for NC(=O)c1ncc(N[C@@H]2CCCC(F)(F)[C@@H]2N)nc1Nc1ccc2c(c1)COC2
// result 8.00 to 9.00

====

- measured_on: full length active recombinant SYK enzyme (Homo sapiens, UniProt P43405)
- Construct: full length active recombinant SYK enzyme (Millipore, Calif.)
- test_description: Inhibition of Syk tyrosine phosphorylation activity (LANCE TR-FRET kinase assay)
- particulars: activity in the Syk assays, class symbols
assay_readout: IC50

>>> obs_value("NC(=O)c1ncc(N[C@@H]2CCCC[C@@H]2N)nc1Nc1ccn2ccnc2c1 [Example 427]")
"1 to 10 nM"
>>> obs_value("CC[C@@H](Nc1cnc(C(N)=O)c(Nc2ccc(S(C)(=O)=O)cc2)n1)C(N)=O [Example 159]")
"10 to 100 nM"

// query Report its IC50 with full length active recombinant SYK enzyme (Homo sapiens, UniProt P43405) as the test system: NC(=O)c1ncc(N[C@H]2CC[C@@H](N)CC2)nc1Nc1ccc2ncccc2c1 [Example 187]
// result 1 to 10 nM

Measured values drawn from patent US9359308B2 for this set.
